# credit: the supplement of paper PMC10065799

Molecular target: c-Src SH2
Assay: SH2 binding enrichment of the phosphorylated peptide, bacterial display (enrichment ratio); higher = better substrate or ligand; peptides without Tyr show the background
Measured SH2 binding enrichment values are reported for all entries that follow.
// return just the number, without any unit appended

Consider the reported SH2 binding enrichment for these sequences:
Problem: Check the records and state SH2 binding enrichment for NTTIHYNFMCN [TP53_Y234_C229N_YF]
Solution: 0.598

Problem: Query SH2 binding enrichment for TNGFTCGSSHQ [MANEA_Y331_Y331C]
Solution: 0.544

Continuing:
Problem: Identify the reported SH2 binding enrichment for the following entry. FQKNIYSEEPR [LMNA_Y211_L215P]
Solution: 0.578

Problem: Read off the recorded SH2 binding enrichment for QDEHGYISRCF [HSPB1_Y133]
Solution: 0.445

Problem: Supply measured SH2 binding enrichment of LERYIYNREEF [HLA-DPB1_Y59] in your reply.
Solution: 0.634

Problem: Query SH2 binding enrichment for PLDVEYFTLQI [TP53_Y327_G325V]
Solution: 0.309

Problem: Input ELPQTYCVSGP [DYSF_Y1684_G1679E] , output reported SH2 binding enrichment.
Solution: 0.47

###

Biological target: Grb2 SH2 (UniProt P62993)
Sequence (P62993 whole entry, looked up): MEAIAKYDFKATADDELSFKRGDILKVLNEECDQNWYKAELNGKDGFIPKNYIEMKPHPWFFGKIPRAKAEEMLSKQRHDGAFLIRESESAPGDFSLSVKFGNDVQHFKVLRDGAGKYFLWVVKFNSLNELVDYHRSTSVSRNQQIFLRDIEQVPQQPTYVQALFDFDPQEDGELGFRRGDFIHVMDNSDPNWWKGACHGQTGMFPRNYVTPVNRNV
Experiment: SH2 binding enrichment of the phosphorylated peptide, bacterial display (enrichment ratio); higher = better substrate or ligand; peptides without Tyr show the background
Label label 1 when SH2 binding enrichment is at or above 0.9; otherwise label label 0.

Examples with answers:
Problem: Reported SH2 binding enrichment reaches at least 0.9 for VTPVMYTYDEY [COL10A1_Y623_G618V] ?
Solution: label 1

Problem: Hello, I need to know if EEVKAYLDFGE [CHAC2_Y78_R82G] has measured SH2 binding enrichment not below 0.9. Thanks!
Solution: label 0

Problem: Given YFCRWYRNRKS [EREG_Y144] , state whether its SH2 binding enrichment is at least 0.9.
Solution: label 0

Others:
Problem: Decide: SH2 binding enrichment of REDVFYTSKLW [AKR1C2_Y81_I79V] >= 0.9?
Solution: label 0

Problem: Hello, I need to know if TEYIQYVRRKN [MAX_Y73_M74V] has measured SH2 binding enrichment not below 0.9. Thanks!
Solution: label 0

Problem: Identify whether the reported SH2 binding enrichment of the following sequence is 0.9 or greater: RHSGSYLVTSV [APC_Y2838]
Solution: label 0

Problem: Form field: SH2 binding enrichment at least 0.9? Entry: IPGRFYETGSI [PAX2_Y73_L69P_YF]
Solution: label 0

Problem: Determine whether this sequence has SH2 binding enrichment no lower than 0.9: RLKAKYAAATG [GLI3_Y933]
Solution: label 0

###

Target: FGFR1 (UniProt P11362)
Sequence (P11362 whole entry, looked up): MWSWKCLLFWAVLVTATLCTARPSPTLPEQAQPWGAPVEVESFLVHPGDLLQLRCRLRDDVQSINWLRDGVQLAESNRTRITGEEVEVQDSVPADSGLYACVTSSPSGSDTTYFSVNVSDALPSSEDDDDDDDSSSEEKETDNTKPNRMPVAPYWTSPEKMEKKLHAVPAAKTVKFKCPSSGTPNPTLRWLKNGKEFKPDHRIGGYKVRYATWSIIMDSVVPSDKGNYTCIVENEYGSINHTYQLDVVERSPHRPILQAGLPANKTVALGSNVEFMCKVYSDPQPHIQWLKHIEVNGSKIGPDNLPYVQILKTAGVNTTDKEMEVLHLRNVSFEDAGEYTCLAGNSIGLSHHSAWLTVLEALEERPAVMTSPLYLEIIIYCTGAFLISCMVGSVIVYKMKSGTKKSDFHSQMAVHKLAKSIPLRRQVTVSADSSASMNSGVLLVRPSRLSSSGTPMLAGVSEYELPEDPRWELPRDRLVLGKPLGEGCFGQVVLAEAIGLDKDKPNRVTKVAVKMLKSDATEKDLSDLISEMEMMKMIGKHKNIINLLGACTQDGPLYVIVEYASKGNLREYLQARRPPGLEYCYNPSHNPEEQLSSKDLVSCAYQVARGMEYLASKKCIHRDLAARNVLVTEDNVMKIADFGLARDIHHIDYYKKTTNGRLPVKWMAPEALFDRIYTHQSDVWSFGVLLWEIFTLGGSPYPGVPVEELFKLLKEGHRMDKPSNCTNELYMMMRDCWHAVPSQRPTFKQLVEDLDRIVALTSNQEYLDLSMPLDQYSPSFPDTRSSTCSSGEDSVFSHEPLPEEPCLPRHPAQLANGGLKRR
Assay: phosphorylation enrichment, bacterial display (enrichment ratio); higher = better substrate or ligand; peptides without Tyr show the background
Listed sequences paired with reported phosphorylation enrichment

Example sequences with recorded phosphorylation enrichment:
Problem: Please look at this sequence and report its phosphorylation enrichment: CTTIHYNFMCT [TP53_Y234_N239T_YF]
Solution: 0.538

Problem: Assign phosphorylation enrichment to the following record: FRSSLYLLMET [MYO5C_Y633]
Solution: 0.724

Problem: Give recorded phosphorylation enrichment. TYGVVYKARNK [CDK2_Y19]
Solution: 0.354

***
Problem: Please supply the value of reported phosphorylation enrichment for the item FIPFRYPKEFQ [IDS_Y234_H229Y_YF]
Solution: 0.465
